Source listed as the domain aggregation screens of Martell et al. (2025).

- Procedure Details: soluble fraction after stress (log2 fold change); higher = more stays soluble; pooled small domains, quantitative proteomics;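 note: 20 min heating vs room temperature control held 20 min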
- Test Conditions: stress: 75 degC
Recorded Metric: soluble fraction (log2)

                              chain_sequence  measured
 0  HMSMSTVGERIKKKRKNLNFTQQELAAKLNISAQAVSKWENGVALPDLGLMPKLAQVLESTVDGLLGYQGA    -0.756
 1  HMYSQEEKRYMEIMEIKPQELSAENLKKQYKKLVKKYHPDLHQDDKQAAEEKFKQLTNAYQVLMRRF    -0.474
 2  HMQPDFLDAKASLALLGVRPQTLYAYVSRGAIRSVPQPGTKAHLYSRSDIERVMARAAARAG     -1.34
 3  HMVDIEQAEFLSRQFDLLLARLDDPTIEWQDIADIRSEYTGENEHRDTIRKGSKLFYEYLQAGWIKN    -0.678
 4  HMVTFDEISQSLVRDVAARRSLSVQTLHAMVDRYNAGSSINAVANQYGIDRLKLREILIELGVHVAT      -2.4
 5  HMNSEEINDVRKAVDELPTHLREILLLNYFQQMSYVQISDSLEIPLGTVKSRLHAAVAAFRNAWQSSQEE    -0.484
 6  HMNFTEAEQRFHFLEDQRQRGVLSLEQYRAELAQLRVTDAWGRLWMLQEQTGQWFVFHEGQWRPSQ    -0.408
 7  HMDIDGVSENGRLILAALDKEALDFDTLAAETGIQESRLRTELTLLEIRKLIMKLPGQRYRLI     -2.39
 8  HMAMDSGELEAIVDRLISEHPDDWAALTAGDDRERKKKSGFFVGEVMKATRGQADGRAVIELLASRSA   -0.0771
 9  HMEVKSGFVHLTGAVKSPGVYPISIGMRLFEVIALAGGFTAKADRESVNLARTVTDGEQIIVSGSG     -3.72
10  HMQSMEIDENEIPSIDKLSEYIEYFKRIYNALFDDKQLAITNIDVLERHFANNFNTLRFKMDE     0.169
11  HMKSARDDILSALDKAGEPLSMKDIAELSGRKLSTLRAQMTRLVAEGAVQATAAAHSPDRKYRK    -0.319
12  HMKAMIIVMKPGADMATISKVLKTIETNGFKPHLSKGEETTVIGVIGDERKLNPDIFSTLEGVERIVPVA     0.251
13  HMVDALYGQGARVMRDFSEGSGIVKLDNGETWTGRLSPAASGASLYVGDRVIVTRIDGAIAEVTPP   0.00352
14  HMSISEFNYTEFNGLVEKGQVSEVTISGREIEGRLTSGESFKTYSPETDNSALVGDLLKNNVKINGKP    0.0159
15  HMSALTDQQQRVLELVASGLVYKEVAAALSISEPTVKYHMGNILTRLHVKNRAQAIAAARQQGLL     -1.58
16  HMATFTPYLVRITASVLNIRKGPGTTYAVTGQIKDRGVYTIVEQKGNWGRLKSGAGWISLSYTKK     -3.25
17  HMPAVGGVVKGAVVSVGRNEVRLDIGGLAIGIIRGPELDKHVDLRIGDEVEATVITLDNEFGELELSL     -1.37
18  HMPSLSREREAAILEMIERRPSTAEDVASGLGLAVNEVIKLLDGTALRGSVETFQSGEEIYYTRKR     0.472
19  HMANKTVPNVSGKTVAEARAIIENQSLQVGEEKEEYSDSVAEGYIIRTNPTAGSQKKEQSKIDLVVSKG     0.128
20  HMQITAPVQKIDGVEYYMHKVEQGQTLYSISKLYNVGVKEIQKANQLGTEGIQLGQVLKVRKGG      -0.2
21  HMLYITEIQKKIMDAFLVVANESNSGTRITMNEIANKVRMTPQAIYRKHFKSVIEISDTIRD    -0.551
22  HMETKERDEQFLEMIRQNEGIIFKVASFYVDKEHPIGDLYQEVVLNLWKGYPSFRGESKYSTWIYRIALNT     0.058
23  HMRMLSEGAQRMLRGLAVLEEASADRLLELHQGDYPGFVRSLFALESAGLFQRNGSGTWIRR     -0.91
24  HMKIELSDNEKIIYDLLSSQHVLLSEIKDKAGLSNKAWDKSTKSLRKLGLIAVEKKDDDIYISKL   -0.0288
25  HMKDIIVLGAIQAGIKKFDKIQKMTQIEPEELNSILEQLENRGFIQVAEKSGLLGKKIEILVTEKGSNEVD     0.223
26  HMYRIGELAKLADVTPDTIRYYEKQQMMDHDVRTEGGFRLYSDNDLQRLKFIRYARQLGFTLEAIRELLSI     -2.27
27  HMQVRVERSRDKVVISGVNYYIHPVRKGETVYSIARAYGITTQDLVRENPSAAEGLKEGQSIRIPERLVD    -0.438
